Consider the following compounds; for each one, report its pIC50.
# System: 292921-168-R-J2-PDC KRAS tumor spheroid viability
# experiment-summary: Anticancer human tumor 292921-168-R-J2-PDC patient-derived pancreatic carcinoma cell line growth inhibition [KRAS2]
# measurement-parameters: curve of first compound; second compound 0.1 µM; spheroids with HUVEC and MSC
pIC50 here is simply -log10 of the concentration when that concentration is written in mol/L.

(Q) Give measured pIC50 for CC(=O)Nc1cccc(-n2c(=O)n(C3CC3)c(=O)c3c(Nc4ccc(I)cc4F)n(C)c(=O)c(C)c32)c1 + CNCc1ccccc1-c1csc(C(C)Nc2nc(C)nc3cc(OC)c(OC)cc23)c1 (292921-168-R-J2-PDC KRAS tumor spheroid viability).
(A) 9.68

(Q) Give measured pIC50 for COC(=O)c1ccc2c(C(=Nc3ccc(N(C)C(=O)CN4CCN(C)CC4)cc3)c3ccccc3)c(O)[nH]c2c1 + COc1cc2nc(C)nc(NC(C)c3cc(N)cc(C(F)(F)F)c3)c2cc1OC1CCOC1 (292921-168-R-J2-PDC KRAS tumor spheroid viability).
(A) 6.07

(Q) Give measured pIC50 for O=C(c1cc(Cc2n[nH]c(=O)c3ccccc23)ccc1F)N1CCN(C(=O)C2CC2)CC1 + C=CC(=O)N1CCN(c2nc(OCC3CCCN3C)nc3c2CCN(c2cccc4cccc(C)c24)C3)CC1CC#N (292921-168-R-J2-PDC KRAS tumor spheroid viability).
(A) 5.21

(Q) Give measured pIC50 for CCN1CCN(Cc2ccc(Nc3ncc(F)c(-c4cc(F)c5nc(C)n(C(C)C)c5c4)n3)nc2)CC1 + C=CC(=O)N1CCN(c2nc(=O)n(-c3c(C)ccnc3C(C)C)c3nc(-c4c(O)cccc4F)c(F)cc23)C(C)C1 (292921-168-R-J2-PDC KRAS tumor spheroid viability).
(A) 7.24

(Q) Give measured pIC50 for CC(C)n1nc(-c2ccc3oc(N)nc3c2)c2c(N)ncnc21 + CC1OCC2(CCN(c3cnc(Sc4ccnc(N)c4Cl)c(N)n3)CC2)C1N (292921-168-R-J2-PDC KRAS tumor spheroid viability).
(A) 8.97

(Q) Give measured pIC50 for O=C(c1cc(Cc2n[nH]c(=O)c3ccccc23)ccc1F)N1CCN(C(=O)C2CC2)CC1 + CNCc1ccccc1-c1csc(C(C)Nc2nc(C)nc3cc(OC)c(OC)cc23)c1 (292921-168-R-J2-PDC KRAS tumor spheroid viability).
(A) 5.21

(Q) Give measured pIC50 for CC1(C)CCC(CN2CCN(c3ccc(C(=O)NS(=O)(=O)c4ccc(NCC5CCOCC5)c([N+](=O)[O-])c4)c(Oc4cnc5[nH]ccc5c4)c3)CC2)=C(c2ccc(Cl)cc2)C1 + C=CC(=O)N1CCN(c2nc(OCC3CCCN3C)nc3c2CCN(c2cccc4cccc(C)c24)C3)CC1CC#N (292921-168-R-J2-PDC KRAS tumor spheroid viability).
(A) 5.68

(Q) Give measured pIC50 for CC(C)n1nc(-c2ccc3oc(N)nc3c2)c2c(N)ncnc21 + C=CC(=O)N1CCN(c2nc(OCC3CCCN3C)nc3c2CCN(c2cccc4cccc(C)c24)C3)CC1CC#N (292921-168-R-J2-PDC KRAS tumor spheroid viability).
(A) 8.55

(Q) Give measured pIC50 for CC1(C)CCC(CN2CCN(c3ccc(C(=O)NS(=O)(=O)c4ccc(NCC5CCOCC5)c([N+](=O)[O-])c4)c(Oc4cnc5[nH]ccc5c4)c3)CC2)=C(c2ccc(Cl)cc2)C1 + C=CC(=O)N1CCN(c2nc(=O)n(-c3c(C)ccnc3C(C)C)c3nc(-c4c(O)cccc4F)c(F)cc23)C(C)C1 (292921-168-R-J2-PDC KRAS tumor spheroid viability).
(A) 5.64

(Q) Give measured pIC50 for CCNC(=O)CC1N=C(c2ccc(Cl)cc2)c2cc(OC)ccc2-n2c(C)nnc21 (stereo not given) + C=CC(=O)N1CCN(c2nc(=O)n(-c3c(C)ccnc3C(C)C)c3nc(-c4c(O)cccc4F)c(F)cc23)C(C)C1 (292921-168-R-J2-PDC KRAS tumor spheroid viability).
(A) 5.22

----------
# System: 292921-168-R-J2-PDC KRAS tumor spheroid viability
# experiment-summary: Anticancer human tumor 292921-168-R-J2-PDC cell line growth inhibition [KRAS2];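 note: drug exposure lasted seven days after spheroids formed for three days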
# measurement-parameters: curve of first compound; second compound 1 µM; spheroids with HUVEC and MSC
Consider the following compounds; for each one, report its log10(IC50).
Could you please treat all values as log10 of IC50 in nM?

(Q) Output log10(IC50) of COC(=O)c1ccc2c(C(=Nc3ccc(N(C)C(=O)CN4CCN(C)CC4)cc3)c3ccccc3)c(O)[nH]c2c1 + CNCc1ccccc1-c1csc(C(C)Nc2nc(C)nc3cc(OC)c(OC)cc23)c1
(A) 2.61

(Q) Output log10(IC50) of CC1(C)CCC(CN2CCN(c3ccc(C(=O)NS(=O)(=O)c4ccc(NCC5CCOCC5)c([N+](=O)[O-])c4)c(Oc4cnc5[nH]ccc5c4)c3)CC2)=C(c2ccc(Cl)cc2)C1 + COc1cc2nc(C)nc(NC(C)c3cc(N)cc(C(F)(F)F)c3)c2cc1OC1CCOC1
(A) 3.26

(Q) Output log10(IC50) of COC(=O)c1ccc2c(C(=Nc3ccc(N(C)C(=O)CN4CCN(C)CC4)cc3)c3ccccc3)c(O)[nH]c2c1 + COc1cc2nc(C)nc(NC(C)c3cc(N)cc(C(F)(F)F)c3)c2cc1OC1CCOC1
(A) 2.58

(Q) Output log10(IC50) of CC(C)n1nc(-c2ccc3oc(N)nc3c2)c2c(N)ncnc21 + COc1cc2nc(C)nc(NC(C)c3cc(N)cc(C(F)(F)F)c3)c2cc1OC1CCOC1
(A) 0.43

(Q) Output log10(IC50) of CC1OCC2(CCN(c3cnc(Sc4ccnc(N)c4Cl)c(N)n3)CC2)C1N (stereo not given) + CNCc1ccccc1-c1csc(C(C)Nc2nc(C)nc3cc(OC)c(OC)cc23)c1
(A) 1.64

(Q) Output log10(IC50) of CC(C)n1nc(-c2ccc3oc(N)nc3c2)c2c(N)ncnc21 + CNCc1ccccc1-c1csc(C(C)Nc2nc(C)nc3cc(OC)c(OC)cc23)c1
(A) 0.00

(Q) Output log10(IC50) of CC1(C)CCC(CN2CCN(c3ccc(C(=O)NS(=O)(=O)c4ccc(NCC5CCOCC5)c([N+](=O)[O-])c4)c(Oc4cnc5[nH]ccc5c4)c3)CC2)=C(c2ccc(Cl)cc2)C1 + C=CC(=O)N1CCN(c2nc(=O)n(-c3c(C)ccnc3C(C)C)c3nc(-c4c(O)cccc4F)c(F)cc23)C(C)C1
(A) 3.31

(Q) Output log10(IC50) of CC(C)NCC(C(=O)N1CCN(c2ncnc3c2C(C)CC3O)CC1)c1ccc(Cl)cc1 (stereo not given) + C=CC(=O)N1CCN(c2nc(=O)n(-c3c(C)ccnc3C(C)C)c3nc(-c4c(O)cccc4F)c(F)cc23)C(C)C1
(A) 3.78

(Q) Output log10(IC50) of CC1OCC2(CCN(c3cnc(Sc4ccnc(N)c4Cl)c(N)n3)CC2)C1N (stereo not given) + COc1cc2nc(C)nc(NC(C)c3cc(N)cc(C(F)(F)F)c3)c2cc1OC1CCOC1
(A) 2.01

----------
# Test system: 292921-168-R-J2-PDC KRAS tumor spheroid viability
# experiment-summary: Anticancer human tumor 292921-168-R-J2-PDC cell line growth inhibition [KRAS2];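 note: drug exposure lasted seven days after spheroids formed for three days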;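 for viability, T/C: percent of DMSO vehicle control viability which is 100%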
# measurement-parameters: second compound 10 µM; first compound 0.1 µM; stronger effect = lower value; spheroids with HUVEC and MSC
# Excerpt: Multicellular complex tumor spheroid response to RAS pathway inhibitors in combination with a targeted agents in patient-derived cell lines with oncogenic KRAS variants from multiple cancer types A high-throughput screen of multi-cell type tumor spheroids was designed to identify active combinations of targeted small molecules and KRAS pathway inhibitors. […] Compounds. […] If the clinical Cmax for an agent had not been determined, the highest concentration tested was 10 microM. […]
Label Criterion met when viability, T/C is strictly below 20%; otherwise label Criterion not met.

(Q) For CC1OCC2(CCN(c3cnc(Sc4ccnc(N)c4Cl)c(N)n3)CC2)C1N (stereo unspecified) + CNCc1ccccc1-c1csc(C(C)Nc2nc(C)nc3cc(OC)c(OC)cc23)c1 , is the recorded viability, T/C below the cut-off of 20%?
(A) Criterion met

(Q) For O=C(c1cc(Cc2n[nH]c(=O)c3ccccc23)ccc1F)N1CCN(C(=O)C2CC2)CC1 + C=CC(=O)N1CCN(c2nc(=O)n(-c3c(C)ccnc3C(C)C)c3nc(-c4c(O)cccc4F)c(F)cc23)C(C)C1 , is the recorded viability, T/C below the cut-off of 20%?
(A) Criterion not met

(Q) For CC(C)NCC(C(=O)N1CCN(c2ncnc3c2C(C)CC3O)CC1)c1ccc(Cl)cc1 (stereo unspecified) + CC1OCC2(CCN(c3cnc(Sc4ccnc(N)c4Cl)c(N)n3)CC2)C1N , is the recorded viability, T/C below the cut-off of 20%?
(A) Criterion not met

(Q) For CC(=O)OC12COC1CC(O)C1(C)C(=O)C(O)C3=C(C)C(OC(=O)C(O)C(NC(=O)OC(C)(C)C)c4ccccc4)CC(O)(C(OC(=O)c4ccccc4)C21)C3(C)C (stereo unspecified) + COc1cc2nc(C)nc(NC(C)c3cc(N)cc(C(F)(F)F)c3)c2cc1OC1CCOC1 , is the recorded viability, T/C below the cut-off of 20%?
(A) Criterion met

(Q) For COc1cc2nccc(Oc3ccc(NC(=O)C4(C(=O)Nc5ccc(F)cc5)CC4)cc3)c2cc1OC + CNCc1ccccc1-c1csc(C(C)Nc2nc(C)nc3cc(OC)c(OC)cc23)c1 , is the recorded viability, T/C below the cut-off of 20%?
(A) Criterion met

(Q) For CCN1CCN(Cc2ccc(Nc3ncc(F)c(-c4cc(F)c5nc(C)n(C(C)C)c5c4)n3)nc2)CC1 + CNCc1ccccc1-c1csc(C(C)Nc2nc(C)nc3cc(OC)c(OC)cc23)c1 , is the recorded viability, T/C below the cut-off of 20%?
(A) Criterion met

(Q) For CC(=O)OC12COC1CC(O)C1(C)C(=O)C(O)C3=C(C)C(OC(=O)C(O)C(NC(=O)OC(C)(C)C)c4ccccc4)CC(O)(C(OC(=O)c4ccccc4)C21)C3(C)C (stereo unspecified) + C=CC(=O)N1CCN(c2nc(=O)n(-c3c(C)ccnc3C(C)C)c3nc(-c4c(O)cccc4F)c(F)cc23)C(C)C1 , is the recorded viability, T/C below the cut-off of 20%?
(A) Criterion met

(Q) For O=C(c1cc(Cc2n[nH]c(=O)c3ccccc23)ccc1F)N1CCN(C(=O)C2CC2)CC1 + CNCc1ccccc1-c1csc(C(C)Nc2nc(C)nc3cc(OC)c(OC)cc23)c1 , is the recorded viability, T/C below the cut-off of 20%?
(A) Criterion met

(Q) For Cn1ncnc1[C@H]1c2n[nH]c(=O)c3cc(F)cc(c23)N[C@@H]1c1ccc(F)cc1 + CNCc1ccccc1-c1csc(C(C)Nc2nc(C)nc3cc(OC)c(OC)cc23)c1 , is the recorded viability, T/C below the cut-off of 20%?
(A) Criterion met

(Q) For CC1COCCN1c1cc(-c2ccnn2C)c2ccnc(-c3ccn[nH]3)c2n1 (stereo unspecified) + CC1OCC2(CCN(c3cnc(Sc4ccnc(N)c4Cl)c(N)n3)CC2)C1N , is the recorded viability, T/C below the cut-off of 20%?
(A) Criterion met

(Q) For CCNC(=O)CC1N=C(c2ccc(Cl)cc2)c2cc(OC)ccc2-n2c(C)nnc21 (stereo unspecified) + CC1OCC2(CCN(c3cnc(Sc4ccnc(N)c4Cl)c(N)n3)CC2)C1N , is the recorded viability, T/C below the cut-off of 20%?
(A) Criterion not met

(Q) For O=C(c1cc(Cc2n[nH]c(=O)c3ccccc23)ccc1F)N1CCN(C(=O)C2CC2)CC1 + CC1OCC2(CCN(c3cnc(Sc4ccnc(N)c4Cl)c(N)n3)CC2)C1N , is the recorded viability, T/C below the cut-off of 20%?
(A) Criterion not met

(Q) For CCN1CCN(Cc2ccc(Nc3ncc(F)c(-c4cc(F)c5nc(C)n(C(C)C)c5c4)n3)nc2)CC1 + C=CC(=O)N1CCN(c2nc(=O)n(-c3c(C)ccnc3C(C)C)c3nc(-c4c(O)cccc4F)c(F)cc23)C(C)C1 , is the recorded viability, T/C below the cut-off of 20%?
(A) Criterion not met

(Q) For CC(C)n1nc(-c2ccc3oc(N)nc3c2)c2c(N)ncnc21 + CC1OCC2(CCN(c3cnc(Sc4ccnc(N)c4Cl)c(N)n3)CC2)C1N , is the recorded viability, T/C below the cut-off of 20%?
(A) Criterion met

(Q) For CN(C)C/C=C/C(=O)Nc1cc2c(Nc3ccc(F)c(Cl)c3)ncnc2cc1O[C@H]1CCOC1 + C=CC(=O)N1CCN(c2nc(=O)n(-c3c(C)ccnc3C(C)C)c3nc(-c4c(O)cccc4F)c(F)cc23)C(C)C1 , is the recorded viability, T/C below the cut-off of 20%?
(A) Criterion met

(Q) For COc1cc(Nc2ncc3c(n2)-c2ccc(Cl)cc2C(c2c(F)cccc2OC)=NC3)ccc1C(=O)O + COc1cc2nc(C)nc(NC(C)c3cc(N)cc(C(F)(F)F)c3)c2cc1OC1CCOC1 , is the recorded viability, T/C below the cut-off of 20%?
(A) Criterion met

(Q) For CC1(C)CCC(CN2CCN(c3ccc(C(=O)NS(=O)(=O)c4ccc(NCC5CCOCC5)c([N+](=O)[O-])c4)c(Oc4cnc5[nH]ccc5c4)c3)CC2)=C(c2ccc(Cl)cc2)C1 + CC1OCC2(CCN(c3cnc(Sc4ccnc(N)c4Cl)c(N)n3)CC2)C1N , is the recorded viability, T/C below the cut-off of 20%?
(A) Criterion not met

(Q) For Cn1ncnc1[C@H]1c2n[nH]c(=O)c3cc(F)cc(c23)N[C@@H]1c1ccc(F)cc1 + C=CC(=O)N1CCN(c2nc(=O)n(-c3c(C)ccnc3C(C)C)c3nc(-c4c(O)cccc4F)c(F)cc23)C(C)C1 , is the recorded viability, T/C below the cut-off of 20%?
(A) Criterion met

(Q) For CN(C)C/C=C/C(=O)Nc1cc2c(Nc3ccc(F)c(Cl)c3)ncnc2cc1O[C@H]1CCOC1 + COc1cc2nc(C)nc(NC(C)c3cc(N)cc(C(F)(F)F)c3)c2cc1OC1CCOC1 , is the recorded viability, T/C below the cut-off of 20%?
(A) Criterion not met

(Q) For COC(=O)c1ccc2c(C(=Nc3ccc(N(C)C(=O)CN4CCN(C)CC4)cc3)c3ccccc3)c(O)[nH]c2c1 + CC1OCC2(CCN(c3cnc(Sc4ccnc(N)c4Cl)c(N)n3)CC2)C1N , is the recorded viability, T/C below the cut-off of 20%?
(A) Criterion not met

The values you see were collected from PubChem BioAssay AID1963870.
